# credit: PubChem BioAssay (NCI)

Tested on: NCI-H23 lung
Assay: NCI tumour cell line growth inhibition, 48 h
reported_metric: TGI

Cc1ccc(C[N+](C)(C)N)cc1C    > 10 µM
CCN1CCN(c2cc(C)nc(N(CCCNc3ccnc4cc(Cl)ccc34)Cc3cccs3)n2)CC1    14.3 µM
COc1nc(-c2cn(S(=O)(=O)c3ccc(C)cc3)c3ccc(Br)cc23)cc(C(F)(F)F)c1C#N    44.9 µM
CC(C)(Cl)C(Cl)CC/C(CBr)=C(\Cl)CCl (stereo unspecified)    14.4 µM
COc1ccc2[nH]c3c(C)c4ccnc(NCCCN(C)CCCNc5ccc6nnn7c8ccccc8c(=O)c5c67)c4c(C)c3c2c1    2.04 µM
O=C1Nc2c(Cl)cc(Cl)cc2/C1=N/N=C/c1ccccc1O    40.3 µM
CC(C)=CCC[C@@H](C)C1=C(O)C(c2c(I)c(=O)n(C)c(=O)n2C)=C(C)C(=O)C1=O    > 100 µM
CCOC(=O)C=C1CCC2(CC1)OCCO2    > 100 µM
S=C(Nc1c2c(nc3ccccc13)CCCC2)Nc1c2c(nc3ccccc13)CCCC2    > 100 µM
COc1cc(C2c3cc4c(cc3OC(N3CCCCC3)C2C)OCO4)cc(OC)c1OC (stereo unspecified)    > 49.8 µM
COC(=O)C1=C(C)N2CCOC2(C)C(C(=O)OC)C1c1ccc[nH]1 (stereo unspecified)    > 100 µM
CCOC(=O)N1C=NC23C(c4ccccc4)C(c4ccccc4)C12C(=O)N(C)C(=O)N3C (stereo unspecified)    > 100 µM
COC(=O)CNC(=O)c1cc(C)cc2c1Oc1c(cc(C)cc1C(=O)NCC(=O)OC)S2    > 100 µM
CN1C(NN)=NS(=O)(=O)c2ccccc21    > 100 µM
Cc1[nH]c2c(C)cccc2c1C1Cc2ccccc2N1 (stereo unspecified)    39.8 µM
O=C(OC(CNc1c(C(=O)c2ccccc2)c(=O)n(Cc2ccccc2)c(=O)n1Cc1ccccc1)CN1CCOCC1)c1ccccc1 (stereo unspecified)    > 100 µM
CCNC(=S)NNC(=O)c1nsc2ccccc12    > 100 µM
O=C(O)/C=N/NC(=S)NC1CCCCC1    > 100 µM
CC(=O)OC1C[C@@H](C)C2(C[C@H](O)c3ccoc3)C(=O)OC[C@]13C2CCC(O)C31CO1 (stereo partly specified)    > 100 µM
COc1c(CC(=O)c2ccccc2)c2ccccc2n1C(C)=O    > 100 µM
CCCCCCCCCCCCCCCCP(=O)(OC)OC    31.8 µM
O=c1[nH]c(=O)n(C2OC(CO)C(N(O)Cc3ccc(F)cc3)C2O)cc1Br (stereo unspecified)    > 100 µM
CCOC(=O)c1ccc2c(c1)c1c(C)c3ccncc3c(C)c1n2C    1.98 µM
CC12OC(=O)[C@@]3(O)CCC4C(C[C@H]5O[C@]56CC=CC(=O)[C@]46C)C45OC[C@H]6C(=O)O[C@@H]1C[C@@]6(C)[C@H](C4=O)C23O5 (stereo partly specified)    2.18 µM
Cc1cn(CCOCCOC(=O)NC(CCCN=C(N)N)C(=O)O)c(=O)[nH]c1=O (stereo unspecified)    > 100 µM
CSC1(C)CC2C(CC1N1CCCCC1)C2(C)C (stereo unspecified)    > 100 µM
CC1(C)CCC(S(=O)(=O)c2ccc3c(c2)/C(=N\O)c2cc(S(=O)(=O)N4CCN(c5ccc(F)cc5O)CC4)ccc2-3)CC1    0.583 µM
Cc1ccc(S(=O)(=O)NC(CCC(=O)NN)C(=O)NN)cc1 (stereo unspecified)    > 100 µM
COC(=O)c1c2c(c[n+]([O-])c1C)C(=O)C=C(NCc1ccccc1)C2=O    0.421 µM
Cn1c(=O)c2ccccc2c2nc3ccccc3nc21    > 100 µM
O=C1c2ccccc2C(=O)N1C/C=N/NS(=O)(=O)c1ccc2ccccc2c1    > 100 µM
CN(C)c1ccc2nc3ccc(=N)cc-3sc2c1    49.5 µM
COC(O)C12OC3CO[Si](C(C)C)(C(C)C)O[Si](C(C)C)(C(C)C)OC3C1Oc1nc(=O)ccn12 (stereo unspecified)    28.4 µM
COC1C(CO)OC(n2c3ccccc3c3c4c(c5c6ccccc6[nH]c5c32)C(=O)NC4=O)C(OC(=O)C(N)CCCCN)C1O (stereo unspecified)    1.53 µM
O=c1oc2ccccc2c(O)c1/C=N/C(=S)Nc1ccccc1    > 100 µM
CC(NC(=O)C(C)C(=O)Nc1ccc(C(F)(F)F)cc1)C(N)=O (stereo unspecified)    > 100 µM
C=C(C(=O)OC)[C@H]1CC/C(C)=C/CC[C@@](C)(O)C=CC[C@@]2(C)O[C@@H]2C1    61 µM
Nc1ccc2c(c1)Cc1cc(Cl)c(Cl)cc1-2    > 100 µM
O=c1nc(Oc2c(F)c(F)c(F)c(F)c2F)ccn1C1OC(CO)C(O)C1O (stereo unspecified)    > 100 µM
COc1cc(C(=O)/C=C/c2c(-c3cccs3)nc3sc(C)cn23)cc(OC)c1OC    > 100 µM
Ic1ccc2[nH]cc(SSc3c[nH]c4ccc(I)cc34)c2c1    7.96 µM
